Cited source: PubChem BioAssay (NCI)

For each of the compounds below, state its growth inhibition.
experiment: NCI Yeast Anticancer Drug Screen. Data for the rad50EPP+ strain (AID 151);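 also: 0% = growth of vehicle-treated control cultures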; settings: S. cerevisiae rad50 mutant strain, at 1.2 µM, stronger effect = higher value
The panel holds about 79,000 compounds, 15% with a hit somewhere; the sample as a whole holds those more often.
One number for each entry, in %.

As a guide, the following entries are already answered.
{"Compound": "O=S(=O)(O)c1ccc(Cl)cc1.[Cd]", "Unit spec": "%", "growth inhibition": 9}
{"Compound": "O=C(O)C1C2CCC(C2)C1c1ccccc1 (stereo not drawn)", "Unit spec": "%", "growth inhibition": -1}

Now examine the next entry.
Could you share which growth inhibition value was measured for O=P(CCCCP(=O)(c1ccccc1)c1ccccc1)(c1ccccc1)c1ccccc1.[Cl][Sn]([Cl])([c]1ccccc1)[c]1ccccc1 ?
8
